These data points were gathered from PubChem BioAssay.

Experiment: basal RPMI8226 viability, no added stimulus, profiling panel, cell-based, calcein-AM fluorescence, 48 h, PK04 Diversity Set (AID 1166);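 also: cells grown under basal conditions without added stimulus; test concentration not given here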
Details: RPMI8226 myeloma viability, higher = more signal
Hi! Just check whether z-score is below -0.07. Below gives yes (1), equal or above gives no (0).

Look over these answered cases.
- molecule: "CC(=O)OC[C@H]1O[C@H](CC=NO[C@H](C)c2cn([C@@H]3COC[C@H]3O)nn2)C=C[C@@H]1OC(C)=O"
  group: "no (0)"
- molecule: "CC(C)=NO[C@H](C)c1cn([C@@H]2COC[C@H]2O)nn1"
  group: "yes (1)"
- molecule: "CC(C)C(=O)N[C@H]1CCCN1C(=O)C=Cc1ccccc1"
  group: "yes (1)"
- molecule: "O=C1[C@H]2[C@H]3[C@H](O)[C@H](O)CC(=NOCc4ccccc4)[C@@H]3CC[C@H]2C(=O)N1c1cccc(Oc2ccccc2)c1"
  group: "no (0)"

is_below(z-score, -0.07) for CO[C@H]1COC(=O)CCC[C@H](C)[C@H](OC)COC(=O)CC=C[C@@H]1C ?
yes (1)

Please state whether z-score is below -0.07 for COC(=O)[C@H](C)NC(=O)CCC1CC(OC(=O)NCc2cccc3ccccc23)CC2(CCCC(COC(=O)NCCc3ccccc3OC)O2)O1 (stereo partly specified)
yes (1)

Lab log: compare recorded z-score with -0.07; is it strictly lower for COC(=O)[C@@H]1CC[C@H](C)[C@@H](c2ccc(Br)cc2)N1C[C@H](O)CN=[N+]=[N-] ?
yes (1)

Item O=C1[C@H]2[C@H]3[C@H](O)[C@H](O)CC(=NOC[C@@H](O)COCc4ccco4)[C@@H]3CC[C@H]2C(=O)N1Cc1ccc2c(c1)OCO2 : z-score beneath -0.07, strictly?
no (0)

Please state whether z-score is below -0.07 for C[C@@H]1CC[C@H]2C(=O)OC(CN3C(=O)c4ccccc4C3=O)CN2[C@H]1c1ccc(Br)cc1 (stereo partly specified)
no (0)

Is z-score of O=C1C=C[C@@H](O)[C@@H]2[C@@H]3C(=O)N(c4cccc(Oc5ccccc5)c4)C(=O)[C@@H]3CC[C@@H]12 strictly below -0.07?
yes (1)
